Target: T1, cell-surface human CD8 (human, UniProt P01732 22-235)
T1 construct: the cell is named under assay; also called cellular human CD8; CD8 on PC3-CD8 cells
T1 sequence (P01732 22-235 limits assumed): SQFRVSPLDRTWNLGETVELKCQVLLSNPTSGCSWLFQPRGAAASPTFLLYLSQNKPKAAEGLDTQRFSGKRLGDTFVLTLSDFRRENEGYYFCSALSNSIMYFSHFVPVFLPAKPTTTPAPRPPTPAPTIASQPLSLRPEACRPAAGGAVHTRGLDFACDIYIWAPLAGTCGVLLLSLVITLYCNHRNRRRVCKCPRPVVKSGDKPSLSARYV
Test: flow cytometry, HPB-ALL cells
ENDPOINT NAME: EC50 (nM)

>  <BINDER>
IAb_M1b_CD8 IgG2 EH (other, Minibody homodimer with artificial IgG2 hinge-extension and IgG2 CH3) DVQITQSPSSLSASVGDRVTITCRTSRSISQYLAWYQQKPGKVPKLLIYSGSTLQSGVPSRFSGSGSGTDFTLTISSLQPEDVATYYCQQHNENPLTFGGGTKVEIKGSTSGGGSGGGSGGGGSSEVQLVESGGGLVQPGGSLRLSCAASGFNIKDTYIHFVRQAPGKGLEWIGRIDPANDNTLYASKFQGKATISADTSKNTAYLQMNSLRAEDTAVYYCGRGYGYYVFDHWGQGTLVTVSSERKCCVECPPCPGGGSSGGGSGGQPREPQVYTLPPSREEMTKNQVSLTCLVKGFYPSDIAVEWESNGQPENNYKTTPPMLDSDGSFFLYSKLTVDKSRWQQGNVFSCSVMHEALHNHYTQKSLSLSPGK

>  <ENDPOINT NAME>
EC50

>  <REPORTED VALUE>
0.13

$$$$
>  <BINDER>
IAb_Mb1b_CD8 (other, also called IAb M1b CD8) DVQITQSPSSLSASVGDRVTITCRTSRSISQYLAWYQQKPGKVPKLLIYSGSTLQSGVPSRFSGSGSGTDFTLTISSLQPEDVATYYCQQHNENPLTFGGGTKVEIKGSTSGGGSGGGSGGGGSSEVQLVESGGGLVQPGGSLRLSCAASGFNIKDTYIHFVRQAPGKGLEWIGRIDPANDNTLYASKFQGKATISADTSKNTAYLQMNSLRAEDTAVYYCGRGYGYYVFDHWGQGTLVTVSSEPKSCDKTHTCPPCGGGSSGGGSGGQPREPQVYTLPPSRDELTKNQVSLTCLVKGFYPSDIAVEWESNGQPENNYKTTPPVLDSDGSFFLYSKLTVDKSRWQQGNVFSCSVMHEALHNHYTQKSLSLSPGK

>  <ENDPOINT NAME>
EC50

>  <REPORTED VALUE>
0.1

$$$$
>  <BINDER>
IAb_Mb2b_CD8 (other, also called IAb M2b CD8) EVQLVESGGGLVQPGGSLRLSCAASGFNIKDTYIHFVRQAPGKGLEWIGRIDPANDNTLYASKFQGKATISADTSKNTAYLQMNSLRAEDTAVYYCGRGYGYYVFDHWGQGTLVTVSSGSTSGGGSGGGSGGGGSSDVQITQSPSSLSASVGDRVTITCRTSRSISQYLAWYQQKPGKVPKLLIYSGSTLQSGVPSRFSGSGSGTDFTLTISSLQPEDVATYYCQQHNENPLTFGGGTKVEIKEPKSCDKTHTCPPCGGGSSGGGSGGQPREPQVYTLPPSRDELTKNQVSLTCLVKGFYPSDIAVEWESNGQPENNYKTTPPVLDSDGSFFLYSKLTVDKSRWQQGNVFSCSVMHEALHNHYTQKSLSLSPGK

>  <ENDPOINT NAME>
EC50

>  <REPORTED VALUE>
0.19

$$$$
